Measured values drawn from patent US4769364A for this set.

System: Phorbia antiqua maggots
Assay: Critical concentration test/soil insects: Phorbia antiqua maggots (in the soil)
Format: in vivo
Conditions: 2.5 ppm active compound in soil; 2 to 7 days; 100% = all test insects killed
Description: Critical concentration test/soil insects Test insect: Phorbia antiqua maggots (in the soil) Solvent: 3 parts by weight of acetone Emulsifier: 1 part by weight alkylaryl polyglycol ether. […] After 24 hours, the test insects are introduced into the treated soil, and after a further 2 to 7 days the degree of effectiveness of the active compound is determined in % by counting the dead and live test insects. […]
Measured Property: degree of effectiveness (%)
Number only, in %; omit the unit.

Lookup: State the recorded degree of effectiveness for this entry: CCOP(=S)(OCC(F)(F)F)Oc1cnc(C(C)(C)C)nc1 (stereo not shown)
Found: 95

Lookup: State the recorded degree of effectiveness for this entry: CCOP(=S)(OCC(F)(F)C(F)F)Oc1cnc(C(C)(C)C)nc1 (stereo not shown)
Found: 100

Lookup: State the recorded degree of effectiveness for this entry: CCCOP(=S)(OCC)Oc1cnc(C(C)C)nc1 (stereo not shown) [known compound (B), reference compound]
Found: 100

Lookup: State the recorded degree of effectiveness for this entry: CCOP(=S)(OCC)Oc1cnc(C(C)(C)C)nc1 [Comparison compound (A), reference compound]
Found: 100
